Molecular target: T1, endogenous phosphorylated Rab10 in human PBMC (Homo sapiens, UniProt P61026)
T1 construct: Strong endogenous phosphorylated Rab10 or phosphorylated Rab8a in human PBMC; host or cells: human PBMC
T1 sequence (P61026 1-200): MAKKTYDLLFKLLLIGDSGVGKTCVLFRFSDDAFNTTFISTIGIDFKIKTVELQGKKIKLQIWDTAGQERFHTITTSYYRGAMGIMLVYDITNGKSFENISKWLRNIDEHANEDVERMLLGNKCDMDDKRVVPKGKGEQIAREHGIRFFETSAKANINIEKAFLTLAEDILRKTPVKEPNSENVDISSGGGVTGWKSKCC
Assay: Western blot of human PBMC with anti-pT73-Rab10 antibodies
Assay type: binding
Conditions: band intensity normalized with Actin control for each of DMSO and LRRK2 inhibitor A; antibody 1 ug/ml
VALUE KIND: Western blot Human PBMC Ratio of DMSO/LRRK2 inhibitor A (mean ± SEM)
Just the number, please, no unit attached.

Recorded Western blot Human PBMC Ratio of DMSO/LRRK2 inhibitor A (mean ± SEM) for Clone 5: anti-phosphorylated (pT73) Rab10 rabbit monoclonal antibody; VH SEQ ID NO:1, VL SEQ ID NO:5 (antibody, V domains shown) VH: METGLRWLLLVAVLKGVQCQSVEESGGRLVTPGTPLTLTCTVSGFSLSSYAMVWVRQAPGKGLEYIGLISRSGVTYYATWAKGRFTISKASTTVDLKIASPTTGDTATYFCVRDYDINGWSGFTIWGPGTLVTVSA VL: MDTRAPTQLLGLLLWLPGAICDPVMTQTPSSTSAAVGGTVTINCQSSQSVYGNNYFSWYQQKPGQPPKLLIYKASTLASGVPSRFKGSGSGTQFTLTISDLECDDAATYYCAGAASDTRFFGGGTELVVN , please?
3.45
